# Target: PDI (Homo sapiens, UniProt P07237)
# Construct: FLAG; made in house; host or cells: Escherichia coli Origami B (DE3)
# Sequence (P07237 18-508): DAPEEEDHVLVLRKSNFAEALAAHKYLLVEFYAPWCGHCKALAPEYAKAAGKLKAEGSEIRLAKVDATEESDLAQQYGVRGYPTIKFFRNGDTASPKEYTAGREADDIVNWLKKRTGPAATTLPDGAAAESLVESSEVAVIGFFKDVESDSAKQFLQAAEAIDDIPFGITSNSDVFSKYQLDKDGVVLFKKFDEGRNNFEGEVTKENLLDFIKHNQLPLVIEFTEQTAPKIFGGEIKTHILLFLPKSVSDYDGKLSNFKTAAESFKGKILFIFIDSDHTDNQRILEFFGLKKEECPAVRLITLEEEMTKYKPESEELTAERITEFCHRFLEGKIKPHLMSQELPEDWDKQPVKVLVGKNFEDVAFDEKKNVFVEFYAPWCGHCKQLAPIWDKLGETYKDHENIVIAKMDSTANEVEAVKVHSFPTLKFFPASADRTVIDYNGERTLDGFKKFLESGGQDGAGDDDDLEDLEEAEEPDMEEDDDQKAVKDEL
# Method notes: Di-eosin-GSSG disulfide reductase assay, PDI
# Type: biochemical
# Measurement parameters: Table 1; IC50 curves on PDI activity (FIGS. 13B-E, 17A-E); read-out: Relative PDI inhibition
Listing: pIC50 of selected compounds
Just so you know, pIC50 here is -log10 of the concentration in molar units; reply with that number alone.

Example compounds with recorded pIC50:
O=C(O[C@@H]1Cc2c(O)cc(O)cc2O[C@@H]1c1cc(=O)c(O)c2c(O)c(O)cc([C@H]3Oc4cc(O)cc(O)c4C[C@H]3O)c2c1)c1cc(O)c(O)c(O)c1 [Theaflavin 3-gallate] = 5.47
O=C1O[C@H]2[C@@H]3OC(=O)c4cc(O)c(O)c(O)c4-c4c(O)c(O)c5oc(=O)c6c(c(O)c(O)c7oc(=O)c4c5c76)-c4c(cc(O)c(O)c4O)C(=O)OC[C@H]3OC(O)[C@@H]2OC(=O)c2cc(O)c(O)c(O)c2-c2c1cc(O)c(O)c2O (mixture of isomers) = 4.72
O=C(O[C@@H]1Cc2c(O)cc(O)cc2O[C@@H]1c1cc(O)c(O)c(O)c1)c1cc(O)c(O)c(O)c1 [EGCG, epigallocatechin gallate] = 3.61

For the next question, use this compound.
Give the reported pIC50 for this compound. O=C(OC[C@H]1O[C@@H](OC(=O)c2cc(O)c(O)c(OC(=O)c3cc(O)c(O)c(O)c3)c2)[C@H](OC(=O)c2cc(O)c(O)c(OC(=O)c3cc(O)c(O)c(O)c3)c2)[C@@H](OC(=O)c2cc(O)c(O)c(OC(=O)c3cc(O)c(O)c(O)c3)c2)[C@@H]1OC(=O)c1cc(O)c(O)c(OC(=O)c2cc(O)c(O)c(O)c2)c1)c1cc(O)c(O)c(OC(=O)c2cc(O)c(O)c(O)c2)c1
5.07
